Assayed system: HLA-DR DRB1*0401 (human)
Assay explanation: competition with 125I-labelled peptide, purified HLA
Hi there, I'd appreciate the recorded pIC50 for every entry that follows.
Give bare numbers, as −log10 of the molar value.

Answered examples (4):
| Binder | pIC50 |
| --- | --- |
| SLMLQIGNMISIWVSHS (modifications not checked) [Flu.NA.21] | 8.30 |
| YIQMCTELKLSDYEG (modifications not checked) [Flu.NP.43] | 6.41 |
| LEGFSAESRKLLLVV (modifications not checked) [Flu.PA.658] | 6.06 |
| EECLINDPWVLLNAS (modifications not checked) [Flu.PA.694] | 5.91 |

In the following, a different binder is considered.
Q: Item TKKMVTQRTIGKKKQ (modifications not checked) [Flu.PB1.199] has what recorded pIC50?
Result: 7.15
